Where do these numbers come from? They come from PubChem BioAssay AID1421.

Please respond with reported PGE2 EC50 with compound for every item in the list.
- test target: Prostaglandin E2 receptor EP2 subtype (Homo sapiens) (UniProt P43116)
- Sequence (P43116 whole entry, looked up): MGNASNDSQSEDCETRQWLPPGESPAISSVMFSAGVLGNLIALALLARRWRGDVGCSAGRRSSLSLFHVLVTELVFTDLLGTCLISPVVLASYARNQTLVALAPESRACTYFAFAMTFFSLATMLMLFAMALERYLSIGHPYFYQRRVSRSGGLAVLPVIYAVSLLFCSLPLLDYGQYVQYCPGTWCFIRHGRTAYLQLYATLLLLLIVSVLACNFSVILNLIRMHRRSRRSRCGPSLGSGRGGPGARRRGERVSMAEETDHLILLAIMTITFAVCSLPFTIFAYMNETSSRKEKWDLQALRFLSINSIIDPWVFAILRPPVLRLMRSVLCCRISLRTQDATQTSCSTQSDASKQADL
- protocol description: EP2 receptor modulators, dose response, cell-based, human EP2, PGE2 EC50 shift (AID 1421)
- measurement setup: EP2-expressing cells, PGE2 EC50 shift by compound; measured here: PGE2 EC50 at 6.7 uM compound
Answer format: numeric, nM implied, no suffix.

Task item: Check the records and state PGE2 EC50 with compound for `C=CCn1c(=O)c2c(nc(-c3ccc(S(=O)(=O)O)cc3)n2C)n(C)c1=O`
Reply: 2.68

Task item: Check the records and state PGE2 EC50 with compound for Cc1ccc(C(=O)C2=C(O)C(=O)N(CCCn3ccnc3)C2c2ccc(OC(C)C)cc2)o1 (configuration not stated)
Reply: 1.01

Task item: Check the records and state PGE2 EC50 with compound for CCOC(=O)C1=NN(c2ccc(C)cc2)C2(S1)SC(C(C)=O)=C(C)N2c1ccccc1 (configuration not stated)
Reply: 0.31

Task item: Check the records and state PGE2 EC50 with compound for `CCOC(=O)c1c(CC(C)C)csc1N`
Reply: 1.47

Task item: Check the records and state PGE2 EC50 with compound for `Cn1c(=O)c2c(nc(CN3CCN(c4ccccc4)CC3)n2Cc2c(F)cccc2Cl)n(C)c1=O`
Reply: 1.38

Task item: Check the records and state PGE2 EC50 with compound for `O=C(CSc1ncnc2c1oc1ccccc12)Nc1ccccc1F`
Reply: 1.86

Task item: Check the records and state PGE2 EC50 with compound for `C=CCSc1nc(N(CC)CC)c2sccc2n1`
Reply: 0.98
